- Method: Cell viability assay (MTT), normal cells
- Format: cell-based
- Measurement context: human, MCF-10A normal mammary gland epithelial cells, four-day incubation
Assay endpoint: viability at 96 h, 50 µM (%)
The response must be a number in % with no trailing unit.

Tell us which viability at 96 h, 50 µM value is on record for COc1ccc(/C=C/C(=O)c2sc(SCC(=O)Nc3nc(-c4ccc(Cl)cc4)cs3)nc2C)cc1 [Compound 10j]
93

Tell us which viability at 96 h, 50 µM value is on record for Cc1nc(SCC(=O)Nc2nc(-c3ccccc3)cs2)sc1C(=O)/C=C/c1ccccc1 [Compound 10a]
87

Tell us which viability at 96 h, 50 µM value is on record for Cc1nc(SCC(=O)Nc2nc(-c3ccccc3)cs2)sc1C(=O)/C=C/c1ccc(F)cc1 [Compound 10c]
89

Tell us which viability at 96 h, 50 µM value is on record for Cc1nc(SCC(=O)Nc2nccs2)sc1C(=O)/C=C/c1ccc(F)cc1 [Compound 13c]
86

Tell us which viability at 96 h, 50 µM value is on record for Cc1nc(SCC(=O)Nc2nccs2)sc1C(=O)/C=C/c1ccccc1 [Compound 13a]
89

Tell us which viability at 96 h, 50 µM value is on record for COc1ccc(/C=C/C(=O)c2sc(SCC(=O)Nc3nccs3)nc2C)cc1 [Compound 13e]
91

Tell us which viability at 96 h, 50 µM value is on record for Cc1ccc(/C=C/C(=O)c2sc(SCC(=O)Nc3nc(-c4ccc(Cl)cc4)cs3)nc2C)cc1 [Compound 10i]
91

Tell us which viability at 96 h, 50 µM value is on record for Cc1ccc(/C=C/C(=O)c2sc(SCC(=O)Nc3nccs3)nc2C)cc1 [Compound 13d]
90

----------
Give Average of Relative viability of cells (%) for every item shown.
- System: colon - HCT-116
- Method: Antiproliferative assay (MTT) HCT-116
- Measurement context: HCT-116, 12.5 µM
Output should be the measured figure followed by the unit it is expressed in.

Provide Average of Relative viability of cells (%), system colon - HCT-116, entry Cc1ccc(/C=C/C(=O)c2sc(SCC(=O)Nc3nccs3)nc2C)cc1 [Compound 13d]
32.7%

Provide Average of Relative viability of cells (%), system colon - HCT-116, entry Cc1nc(SCC(=O)Nc2nccs2)sc1C(=O)/C=C/c1ccc(Cl)cc1 [Compound 13b]
53.2%

Provide Average of Relative viability of cells (%), system colon - HCT-116, entry COc1ccc(/C=C/C(=O)c2sc(SCC(=O)Nc3nc(-c4ccc(C)cc4)cs3)nc2C)cc1 [Compound 10o]
24.5%

Provide Average of Relative viability of cells (%), system colon - HCT-116, entry Cc1ccc(-c2csc(NC(=O)CSc3nc(C)c(C(=O)/C=C/c4ccc(F)cc4)s3)n2)cc1 [Compound 10m]
67.3%

Provide Average of Relative viability of cells (%), system colon - HCT-116, entry Cc1nc(SCC(=O)Nc2nccs2)sc1C(=O)/C=C/c1ccc(F)cc1 [Compound 13c]
51.3%

Provide Average of Relative viability of cells (%), system colon - HCT-116, entry Cc1nc(SCC(=O)Nc2nc(-c3ccc(Cl)cc3)cs2)sc1C(=O)/C=C/c1ccccc1 [Compound 10f]
63.4%

Provide Average of Relative viability of cells (%), system colon - HCT-116, entry Cc1nc(SCC(=O)Nc2nc(-c3ccc(Cl)cc3)cs2)sc1C(=O)/C=C/c1ccc(F)cc1 [Compound 10h]
69.3%

Provide Average of Relative viability of cells (%), system colon - HCT-116, entry Cc1ccc(/C=C/C(=O)c2sc(SCC(=O)Nc3nc(-c4ccccc4)cs3)nc2C)cc1 [Compound 10d]
50.2%

----------
Give Tub %inh for every item shown.
- Test system: tubulin
- Method: Tubulin polymerization inhibition assay (Cytoskeleton kit)
- Measurement context: conc 0.1 (unit not given), 30 min, YB-EGY run
The response must be a number in % with no trailing unit.

Tell us which Tub %inh value is on record for Cc1nc(SCC(=O)Nc2nc(-c3ccccc3)cs2)sc1C(=O)/C=C/c1ccc(Cl)cc1 [Compound 10b]
5.79

Tell us which Tub %inh value is on record for COc1ccc(/C=C/C(=O)c2sc(SCC(=O)Nc3nc(-c4ccc(C)cc4)cs3)nc2C)cc1 [Compound 10o]
16

Tell us which Tub %inh value is on record for Cc1nc(SCC(=O)Nc2nc(-c3ccc(Cl)cc3)cs2)sc1C(=O)/C=C/c1ccc(F)cc1 [Compound 10h]
9.85

Tell us which Tub %inh value is on record for Cc1ccc(/C=C/C(=O)c2sc(SCC(=O)Nc3nc(-c4ccccc4)cs3)nc2C)cc1 [Compound 10d]
17.5

Tell us which Tub %inh value is on record for Cc1nc(SCC(=O)Nc2nccs2)sc1C(=O)/C=C/c1ccc(Cl)cc1 [Compound 13b]
15.2

Tell us which Tub %inh value is on record for Cc1nc(SCC(=O)Nc2nccs2)sc1C(=O)/C=C/c1ccc(F)cc1 [Compound 13c]
6.12

Tell us which Tub %inh value is on record for COc1ccc(/C=C/C(=O)c2sc(SCC(=O)Nc3nccs3)nc2C)cc1 [Compound 13e]
7.07

Tell us which Tub %inh value is on record for Cc1nc(SCC(=O)Nc2nc(-c3ccccc3)cs2)sc1C(=O)/C=C/c1ccccc1 [Compound 10a]
16.5

Tell us which Tub %inh value is on record for Cc1nc(SCC(=O)Nc2nccs2)sc1C(=O)/C=C/c1ccccc1 [Compound 13a]
5.68

Tell us which Tub %inh value is on record for Cc1nc(SCC(=O)Nc2nc(-c3ccccc3)cs2)sc1C(=O)/C=C/c1ccc(F)cc1 [Compound 10c]
4.47

----------
- Tested on: - MDAMB-231
- Method: Antiproliferative assay (MTT) MDAMB-231
- Measurement context: MDAMB-231, 100 µM
Assay endpoint: Average of Relative viability of cells (%)
The response must be a number in % with no trailing unit.

Tell us which Average of Relative viability of cells (%) value is on record for Cc1ccc(/C=C/C(=O)c2sc(SCC(=O)Nc3nccs3)nc2C)cc1 [Compound 13d]
7.5

Tell us which Average of Relative viability of cells (%) value is on record for Cc1nc(SCC(=O)Nc2nc(-c3ccc(Cl)cc3)cs2)sc1C(=O)/C=C/c1ccccc1 [Compound 10f]
14.3

Tell us which Average of Relative viability of cells (%) value is on record for Cc1ccc(-c2csc(NC(=O)CSc3nc(C)c(C(=O)/C=C/c4ccc(F)cc4)s3)n2)cc1 [Compound 10m]
24.8

Tell us which Average of Relative viability of cells (%) value is on record for Cc1nc(SCC(=O)Nc2nc(-c3ccc(Cl)cc3)cs2)sc1C(=O)/C=C/c1ccc(F)cc1 [Compound 10h]
21.6

----------
- Test system: tubulin
- Method: Tubulin polymerization inhibition assay (Cytoskeleton kit)
- Measurement context: conc 0.1 (unit not given), 30 min, codes 522-537 run
In this scheme, each record receives a class according to its Tub. enzyme inhibition assay %inhibition; the ranges are one: < 7%; two: ≥ 7% and < 10%; three: ≥ 10%

# classify by Tub. enzyme inhibition assay %inhibition band: Cc1nc(SCC(=O)Nc2nc(-c3ccc(Cl)cc3)cs2)sc1C(=O)/C=C/c1ccc(Cl)cc1 [Compound 10g]
one

# classify by Tub. enzyme inhibition assay %inhibition band: Cc1ccc(/C=C/C(=O)c2sc(SCC(=O)Nc3nc(-c4ccc(Cl)cc4)cs3)nc2C)cc1 [Compound 10i]
one

# classify by Tub. enzyme inhibition assay %inhibition band: Cc1ccc(/C=C/C(=O)c2sc(SCC(=O)Nc3nccs3)nc2C)cc1 [Compound 13d]
three

# classify by Tub. enzyme inhibition assay %inhibition band: Cc1ccc(/C=C/C(=O)c2sc(SCC(=O)Nc3nc(-c4ccc(C)cc4)cs3)nc2C)cc1 [Compound 10n]
two

# classify by Tub. enzyme inhibition assay %inhibition band: COc1ccc(/C=C/C(=O)c2sc(SCC(=O)Nc3nc(-c4ccccc4)cs3)nc2C)cc1 [Compound 10e]
two

# classify by Tub. enzyme inhibition assay %inhibition band: Cc1ccc(-c2csc(NC(=O)CSc3nc(C)c(C(=O)/C=C/c4ccccc4)s3)n2)cc1 [Compound 10k]
one

# classify by Tub. enzyme inhibition assay %inhibition band: Cc1nc(SCC(=O)Nc2nc(-c3ccc(Cl)cc3)cs2)sc1C(=O)/C=C/c1ccccc1 [Compound 10f]
three

# classify by Tub. enzyme inhibition assay %inhibition band: Cc1ccc(-c2csc(NC(=O)CSc3nc(C)c(C(=O)/C=C/c4ccc(Cl)cc4)s3)n2)cc1 [Compound 10l]
three

# classify by Tub. enzyme inhibition assay %inhibition band: Cc1ccc(-c2csc(NC(=O)CSc3nc(C)c(C(=O)/C=C/c4ccc(F)cc4)s3)n2)cc1 [Compound 10m]
three

----------
- System: tubulin
- Method: Tubulin polymerization inhibition assay (Cytoskeleton kit);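 further: Cell-free tubulin polymerization read by fluorescent reporter enhancement over a 30 min reaction, with the compound-free kit control taken as 100% activity and inhibition relative to it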
- Measurement context: read-out: Tubulin inhibition IC50 ± SEM; triplicate for each tested concentration
Assay endpoint: pIC50
The value called pIC50 is obtained by taking minus log10 of the concentration in mol/L.

Tell us which pIC50 value is on record for Cc1ccc(/C=C/C(=O)c2sc(SCC(=O)Nc3nc(-c4ccccc4)cs3)nc2C)cc1 [Compound 10d]
5.28

Tell us which pIC50 value is on record for Cc1ccc(/C=C/C(=O)c2sc(SCC(=O)Nc3nc(-c4ccc(Cl)cc4)cs3)nc2C)cc1 [Compound 10i]
4.48

Tell us which pIC50 value is on record for Cc1nc(SCC(=O)Nc2nc(-c3ccc(Cl)cc3)cs2)sc1C(=O)/C=C/c1ccccc1 [Compound 10f]
5.25

Tell us which pIC50 value is on record for COc1ccc(/C=C/C(=O)c2sc(SCC(=O)Nc3nccs3)nc2C)cc1 [Compound 13e]
4.40

Tell us which pIC50 value is on record for Cc1ccc(-c2csc(NC(=O)CSc3nc(C)c(C(=O)/C=C/c4ccccc4)s3)n2)cc1 [Compound 10k]
4.32

Tell us which pIC50 value is on record for Cc1nc(SCC(=O)Nc2nccs2)sc1C(=O)/C=C/c1ccc(F)cc1 [Compound 13c]
5.22

Tell us which pIC50 value is on record for COc1ccc(/C=C/C(=O)c2sc(SCC(=O)Nc3nc(-c4ccc(C)cc4)cs3)nc2C)cc1 [Compound 10o]
5.44

Tell us which pIC50 value is on record for Cc1ccc(-c2csc(NC(=O)CSc3nc(C)c(C(=O)/C=C/c4ccc(Cl)cc4)s3)n2)cc1 [Compound 10l]
4.86

Tell us which pIC50 value is on record for Cc1nc(SCC(=O)Nc2nccs2)sc1C(=O)/C=C/c1ccccc1 [Compound 13a]
4.80

Tell us which pIC50 value is on record for Cc1ccc(-c2csc(NC(=O)CSc3nc(C)c(C(=O)/C=C/c4ccc(F)cc4)s3)n2)cc1 [Compound 10m]
5.10

Tell us which pIC50 value is on record for Cc1nc(SCC(=O)Nc2nccs2)sc1C(=O)/C=C/c1ccc(Cl)cc1 [Compound 13b]
5.43

Tell us which pIC50 value is on record for Cc1nc(SCC(=O)Nc2nc(-c3ccc(Cl)cc3)cs2)sc1C(=O)/C=C/c1ccc(F)cc1 [Compound 10h]
5.10

Tell us which pIC50 value is on record for Cc1nc(SCC(=O)Nc2nc(-c3ccccc3)cs2)sc1C(=O)/C=C/c1ccc(Cl)cc1 [Compound 10b]
5.06
